targetSystem: Cbl-b (Homo sapiens (Human), UniProt Q13191)
Sequence (Q13191 40-426): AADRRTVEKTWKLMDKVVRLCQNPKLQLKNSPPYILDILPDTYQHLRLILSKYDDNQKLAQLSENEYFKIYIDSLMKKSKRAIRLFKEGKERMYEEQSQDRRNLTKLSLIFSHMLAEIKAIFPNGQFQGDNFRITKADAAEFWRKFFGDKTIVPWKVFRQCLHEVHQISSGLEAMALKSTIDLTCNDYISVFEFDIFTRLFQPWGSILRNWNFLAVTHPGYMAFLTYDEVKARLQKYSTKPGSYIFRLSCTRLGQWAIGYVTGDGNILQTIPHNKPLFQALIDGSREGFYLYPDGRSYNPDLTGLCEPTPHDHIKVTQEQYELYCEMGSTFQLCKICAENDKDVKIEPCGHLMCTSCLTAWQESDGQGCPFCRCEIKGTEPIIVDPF
assayOverview: Cbl-b LCK Ub TR-FRET assay (Cbl-b Lck HTRF)
Type: biochemical
conditionNotes: Cbl-b LCK Ub TR-FRET
pIC50: −log10 of the molar value.
metric: pIC50

Check out these entries, answers already filled in.
* CC[C@H]1C[C@](c2cccc(N3Cc4c(Cl)cc(CNC5(C)CCC5)cc4C3=O)c2)(c2nncn2C)C1 [Compound 375] | 8.19
* Cn1cnnc1[C@H](c1cccc(N2Cc3c(cc(CNC4(C)CCC4)cc3C(F)(F)F)C2=O)c1)C1(O)COC1 (single isomer, unassigned) [Compound 147] | 7.89
* Cn1cnnc1C1(c2cccc(N3Cc4c(cc(CNC5(C)CCC5)cc4C(F)(F)F)C3=O)c2)CSC1.O=CO [Compound 329, formate] | 7.96
* Cn1cnnc1C1(c2cccc(N3Cc4c(cc(CNC5(C)CCC5)cc4C(F)(F)F)C3=O)c2)CC2(COC2)C1 [Compound 65] | 7.70

a: Cn1cnnc1C1(c2cccc(N3Cc4c(cc(CNC5(C)CCC5)cc4C(F)(F)F)C3=O)c2)CCCCC1 [Compound 298]
b: C=CCOc1cc(N2Cc3c(cc(CNC4(C)CCC4)cc3C(F)(F)F)C2=O)cc([C@]2(c3nncn3C)C[C@@H](OC)C2)c1 [Compound 205]
// compare measured pIC50 between a and b ; output the lower one Answer by quoting the chosen item's label. a
(a: 6.18, b: 7.20)
